All figures here come from ChEMBL document CHEMBL5154852.

# Test system: Staphylococcus aureus
# ASSAY_TEXT: Antimicrobial activity against methicillin-resistant Staphylococcus aureus USA300 LAC incubated for 24 hrs by broth microdilution method
# Type: functional
Measured MIC accompanies every entry in the list below.

>  <MOLECULE>
O=C(c1cc(C(F)(F)F)n[nH]1)c1cc(Cl)c(Cl)cc1O

>  <SYSTEM_UNDER_TEST>
Staphylococcus aureus

>  <MIC>
0.0625 µg/mL

$$$$
>  <MOLECULE>
N#Cc1cc(C(=O)c2cc(Cl)c(Cl)cc2O)[nH]n1

>  <SYSTEM_UNDER_TEST>
Staphylococcus aureus

>  <MIC>
0.25 µg/mL

$$$$
>  <MOLECULE>
O=C(O)c1n[nH]c2c(=O)c3c(O)c(Cl)cc(Cl)c3oc12

>  <SYSTEM_UNDER_TEST>
Staphylococcus aureus

>  <MIC>
> 256 µg/mL

$$$$
>  <MOLECULE>
O=C(O)c1cn(C2CC2)c2cc(N3CCNCC3)c(F)cc2c1=O [CIPROFLOXACIN]

>  <SYSTEM_UNDER_TEST>
Staphylococcus aureus

>  <MIC>
2 µg/mL

$$$$
>  <MOLECULE>
N#Cc1n[nH]c2c(=O)c3c(O)c(Cl)cc(Cl)c3sc12

>  <SYSTEM_UNDER_TEST>
Staphylococcus aureus

>  <MIC>
2 µg/mL

$$$$
>  <MOLECULE>
O=C1c2[nH]nc(C(F)(F)F)c2S(=O)(=O)c2c(Cl)cc(Cl)c(O)c21

>  <SYSTEM_UNDER_TEST>
Staphylococcus aureus

>  <MIC>
256 µg/mL

$$$$
>  <MOLECULE>
Cc1n[nH]c2c(=O)c3c(O)c(Cl)cc(Cl)c3oc12

>  <SYSTEM_UNDER_TEST>
Staphylococcus aureus

>  <MIC>
> 256 µg/mL

$$$$
>  <MOLECULE>
O=C(c1cc(C(F)(F)F)n[nH]1)c1cc(Cl)c(F)cc1O

>  <SYSTEM_UNDER_TEST>
Staphylococcus aureus

>  <MIC>
0.25 µg/mL

$$$$
>  <MOLECULE>
N#Cc1n[nH]c2c(=O)c3ccccc3sc12

>  <SYSTEM_UNDER_TEST>
Staphylococcus aureus

>  <MIC>
32 µg/mL

$$$$
>  <MOLECULE>
NC(=O)c1n[nH]c2c(=O)c3c(O)c(Cl)cc(Cl)c3oc12

>  <SYSTEM_UNDER_TEST>
Staphylococcus aureus

>  <MIC>
> 256 µg/mL

$$$$
>  <MOLECULE>
COC(=O)c1n[nH]c2c(=O)c3c(O)c(Cl)cc(Cl)c3oc12

>  <SYSTEM_UNDER_TEST>
Staphylococcus aureus

>  <MIC>
16 µg/mL

$$$$

---

Measured MIC accompanies every entry in the list below.
# Tested on: Enterococcus faecalis
# ASSAY_TEXT: Antibacterial activity against vancomycin-resistant, teicoplanin sensitive Enterococcus faecalis HS0847 incubated for 24 hrs by broth microdilution method
# Format: functional
MEASUREMENT_TYPE: MIC

>  <MOLECULE>
O=C(c1cc(C(F)(F)F)n[nH]1)c1cc(Cl)c(Cl)cc1O

>  <SYSTEM_UNDER_TEST>
Enterococcus faecalis

>  <MEASUREMENT_TYPE>
MIC

>  <DATA_VALUE>
0.25 µg/mL

$$$$
>  <MOLECULE>
CN[C@H](CC(C)C)C(=O)N[C@H]1C(=O)N[C@@H](CC(N)=O)C(=O)N[C@H]2C(=O)N[C@H]3C(=O)N[C@H](C(=O)N[C@H](C(=O)O)c4cc(O)cc(O)c4-c4cc3ccc4O)[C@H](O)c3ccc(c(Cl)c3)Oc3cc2cc(c3O[C@@H]2O[C@H](CO)[C@@H](O)[C@H](O)[C@H]2O[C@H]2C[C@](C)(N)[C@H](O)[C@H](C)O2)Oc2ccc(cc2Cl)[C@H]1O [VANCOMYCIN]

>  <SYSTEM_UNDER_TEST>
Enterococcus faecalis

>  <MEASUREMENT_TYPE>
MIC

>  <DATA_VALUE>
0.25 µg/mL

$$$$
>  <MOLECULE>
N#Cc1cc(C(=O)c2cc(Cl)c(Cl)cc2O)[nH]n1

>  <SYSTEM_UNDER_TEST>
Enterococcus faecalis

>  <MEASUREMENT_TYPE>
MIC

>  <DATA_VALUE>
0.5 µg/mL

$$$$
>  <MOLECULE>
O=C(c1cc(C(F)(F)F)n[nH]1)c1cc(Cl)c(F)cc1O

>  <SYSTEM_UNDER_TEST>
Enterococcus faecalis

>  <MEASUREMENT_TYPE>
MIC

>  <DATA_VALUE>
0.5 µg/mL

$$$$
